Molecular target: human EP1 receptor (Homo sapiens, UniProt P34995)
Construct: expressed in transfected cells; host or cells: CHO-K1
Sequence (P34995 whole entry): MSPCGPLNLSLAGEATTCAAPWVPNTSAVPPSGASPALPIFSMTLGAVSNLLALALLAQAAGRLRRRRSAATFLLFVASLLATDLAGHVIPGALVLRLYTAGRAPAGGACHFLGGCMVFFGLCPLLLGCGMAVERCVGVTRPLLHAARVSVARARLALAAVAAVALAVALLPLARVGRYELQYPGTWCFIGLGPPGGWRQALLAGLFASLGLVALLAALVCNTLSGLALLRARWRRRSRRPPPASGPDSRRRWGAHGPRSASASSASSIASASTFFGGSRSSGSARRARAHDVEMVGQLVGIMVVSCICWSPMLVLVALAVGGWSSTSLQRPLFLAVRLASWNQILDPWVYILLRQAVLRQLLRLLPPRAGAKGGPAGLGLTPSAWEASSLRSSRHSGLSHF
Test: human EP1 calcium mobilisation assay
Format: cell-based
Conditions: human EP1, CHO-K1 cells, PGE2-induced calcium mobilisation; averages of a number of experiments; read-out: functional pKi (converted)
Structures can show the parent of a compound that is named as a salt.
RESULT_TYPE: Ki

COMPOUND | TARGET | EXPERIMENTAL_RESULT
CC(C)Cc1cn(-c2nc(-c3nc4ccccc4[nH]3)cs2)c2cc(Br)ccc12 [Example 38, hydrochloride] | human EP1 receptor (Homo sapiens, UniProt P34995) | ≤ 100 nM
CC(C)Cc1cn(-c2nc(C(=O)Nc3cccc(CO)c3)cs2)c2cc(Cl)ccc12 [Example 24] | human EP1 receptor (Homo sapiens, UniProt P34995) | ≤ 100 nM
CC(C)Cc1cn(-c2nc(C(=O)Nc3ccccc3CO)cs2)c2cc(Cl)ccc12 [Example 20] | human EP1 receptor (Homo sapiens, UniProt P34995) | ≤ 100 nM
